Exercise: for every item that follows, state its recorded Purity%.
Test: Long-term/accelerated stability of crystal forms
Assay type: physicochemical
Conditions: 40 °C/75% RH, 14 days, sealed in aluminum foil bag
Give bare numbers, in %.

Give Purity% for each listed item.
1. C[C@H]1COc2c(-c3nc(N[C@@H]4CCOC[C@H]4O)ncc3Cl)cc(F)c3nc(C(C)(C)O)n1c23 [Crystal form G]
2. C[C@H]1COc2c(-c3nc(N[C@@H]4CCOC[C@H]4O)ncc3Cl)cc(F)c3nc(C(C)(C)O)n1c23 [Crystal form H]

99.9
99.95

Give Purity% for each listed item.
1. C[C@H]1COc2c(-c3nc(N[C@@H]4CCOC[C@H]4O)ncc3Cl)cc(F)c3nc(C(C)(C)O)n1c23 [Crystal form E]
2. C[C@H]1COc2c(-c3nc(N[C@@H]4CCOC[C@H]4O)ncc3Cl)cc(F)c3nc(C(C)(C)O)n1c23 [Free-state amorphous form]
3. C[C@H]1COc2c(-c3nc(N[C@@H]4CCOC[C@H]4O)ncc3Cl)cc(F)c3nc(C(C)(C)O)n1c23 [Crystal form D]
4. C[C@H]1COc2c(-c3nc(N[C@@H]4CCOC[C@H]4O)ncc3Cl)cc(F)c3nc(C(C)(C)O)n1c23 [Crystal form F]

1: 99.9; 2: 99.0; 3: 99.9; 4: 99.9

----------
Target sequence: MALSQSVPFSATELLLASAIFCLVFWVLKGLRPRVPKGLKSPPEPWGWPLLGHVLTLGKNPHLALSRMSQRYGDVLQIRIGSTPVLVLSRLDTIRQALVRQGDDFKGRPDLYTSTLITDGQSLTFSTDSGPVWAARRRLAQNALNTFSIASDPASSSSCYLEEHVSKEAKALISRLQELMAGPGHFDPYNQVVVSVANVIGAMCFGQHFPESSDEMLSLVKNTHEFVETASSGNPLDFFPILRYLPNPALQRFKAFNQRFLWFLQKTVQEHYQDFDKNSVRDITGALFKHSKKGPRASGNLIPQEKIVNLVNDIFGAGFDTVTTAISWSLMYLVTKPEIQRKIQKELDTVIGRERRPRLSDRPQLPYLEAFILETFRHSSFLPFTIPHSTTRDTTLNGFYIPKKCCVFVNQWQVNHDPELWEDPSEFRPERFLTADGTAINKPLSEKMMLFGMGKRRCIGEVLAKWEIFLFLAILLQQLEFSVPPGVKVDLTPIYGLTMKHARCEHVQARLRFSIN
pIC50: −log10 of the molar value.
Exercise: for every item that follows, state its recorded pIC50.

COMPOUND	RESULT
C[C@H]1COc2c(-c3nc(N[C@@H]4CCOC[C@H]4O)ncc3Cl)cc(F)c3nc(C(C)(C)O)n1c23 (single isomer, unassigned) [Isomer 1 with a retention time of 2.078 min]	< 4.52

Switching to the query record.
C[C@@H]1COc2c(-c3nc(N[C@@H]4CCOC[C@H]4O)ncc3Cl)cc(F)c3nc(C(C)(C)O)n1c23 (single isomer, unassigned) [Isomer 2 with a retention time of 1.887 min] has a reported pIC50 of < 4.52

----------
Experiment: Long-term/accelerated stability of crystal forms
Assay type: physicochemical
Settings: 40 °C/75% RH, 6 months, sealed in aluminum foil bag
Exercise: for every item that follows, state its recorded Purity%.
A complete answer gives the number and then names the unit.

Answered cases to consult:
> print(dat)
                                   molecule  result
1  C[C@H]1COc2c(-c3nc(N[C@@H]4CCOC[C@H]4O)ncc3Cl)cc(F)c3nc(C(C)(C)O)n1c23 [Crystal form F]   99.9%
2  C[C@H]1COc2c(-c3nc(N[C@@H]4CCOC[C@H]4O)ncc3Cl)cc(F)c3nc(C(C)(C)O)n1c23 [Crystal form E]   99.9%
3  C[C@H]1COc2c(-c3nc(N[C@@H]4CCOC[C@H]4O)ncc3Cl)cc(F)c3nc(C(C)(C)O)n1c23 [Crystal form G]   99.9%
4  C[C@H]1COc2c(-c3nc(N[C@@H]4CCOC[C@H]4O)ncc3Cl)cc(F)c3nc(C(C)(C)O)n1c23 [Free-state amorphous form]   98.8%

C[C@H]1COc2c(-c3nc(N[C@@H]4CCOC[C@H]4O)ncc3Cl)cc(F)c3nc(C(C)(C)O)n1c23 [Crystal form D] has a reported Purity% of 99.9%

----------
Test: Long-term/accelerated stability of crystal forms
Assay type: physicochemical
Details: 25 °C/60% RH, 3 months, sealed in aluminum foil bag
Exercise: for every item that follows, state its recorded Purity%.
A complete answer gives the number and then names the unit.

> print(dat)
                                   compound  result
1  C[C@H]1COc2c(-c3nc(N[C@@H]4CCOC[C@H]4O)ncc3Cl)cc(F)c3nc(C(C)(C)O)n1c23 [Crystal form G]   99.9%
2  C[C@H]1COc2c(-c3nc(N[C@@H]4CCOC[C@H]4O)ncc3Cl)cc(F)c3nc(C(C)(C)O)n1c23 [Crystal form H]  99.95%
3  C[C@H]1COc2c(-c3nc(N[C@@H]4CCOC[C@H]4O)ncc3Cl)cc(F)c3nc(C(C)(C)O)n1c23 [Crystal form F]   99.9%
4  C[C@H]1COc2c(-c3nc(N[C@@H]4CCOC[C@H]4O)ncc3Cl)cc(F)c3nc(C(C)(C)O)n1c23 [Crystal form E]   99.9%

C[C@H]1COc2c(-c3nc(N[C@@H]4CCOC[C@H]4O)ncc3Cl)cc(F)c3nc(C(C)(C)O)n1c23 [Crystal form D] has a reported Purity% of 99.9%

----------
Molecular target: CDK9/CyclinT1 (Homo sapiens, UniProt P50750)
Sequence (P50750 whole entry, species assumed): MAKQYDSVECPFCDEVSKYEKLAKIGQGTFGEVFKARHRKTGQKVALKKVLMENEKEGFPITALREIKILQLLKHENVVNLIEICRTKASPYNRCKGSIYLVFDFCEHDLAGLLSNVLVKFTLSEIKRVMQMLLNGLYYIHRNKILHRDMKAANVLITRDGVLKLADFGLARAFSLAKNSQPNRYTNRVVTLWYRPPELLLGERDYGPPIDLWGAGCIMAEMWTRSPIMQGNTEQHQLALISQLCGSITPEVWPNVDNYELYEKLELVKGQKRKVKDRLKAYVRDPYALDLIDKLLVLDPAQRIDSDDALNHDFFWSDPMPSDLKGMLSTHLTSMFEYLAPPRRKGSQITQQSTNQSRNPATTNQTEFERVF
Sequence (O60563 whole entry partner, species assumed): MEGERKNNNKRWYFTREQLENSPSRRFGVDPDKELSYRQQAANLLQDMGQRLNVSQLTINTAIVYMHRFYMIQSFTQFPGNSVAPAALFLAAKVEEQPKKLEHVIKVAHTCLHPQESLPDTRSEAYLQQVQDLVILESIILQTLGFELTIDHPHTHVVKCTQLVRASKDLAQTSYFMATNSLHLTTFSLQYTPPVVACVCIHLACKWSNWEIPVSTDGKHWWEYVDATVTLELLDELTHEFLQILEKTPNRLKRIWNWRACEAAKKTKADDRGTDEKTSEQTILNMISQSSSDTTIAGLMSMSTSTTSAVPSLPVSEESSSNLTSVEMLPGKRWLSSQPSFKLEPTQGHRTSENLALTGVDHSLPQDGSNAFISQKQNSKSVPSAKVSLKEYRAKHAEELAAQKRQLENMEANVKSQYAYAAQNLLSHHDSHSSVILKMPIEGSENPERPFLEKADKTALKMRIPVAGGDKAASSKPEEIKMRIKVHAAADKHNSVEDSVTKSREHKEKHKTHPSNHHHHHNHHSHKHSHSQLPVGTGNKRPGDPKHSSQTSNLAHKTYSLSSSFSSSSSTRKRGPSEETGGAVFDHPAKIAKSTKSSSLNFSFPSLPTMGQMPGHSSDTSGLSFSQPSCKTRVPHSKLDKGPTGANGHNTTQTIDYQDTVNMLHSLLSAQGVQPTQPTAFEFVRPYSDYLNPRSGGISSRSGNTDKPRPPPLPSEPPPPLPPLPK
Experiment: Kinase activity assay, ADP-Glo (CDK9/CyclinT1)
Details: Table 18; read-out: CDK9/T1 IC50
Exercise: for every item that follows, state its recorded IC50.

MOLECULE	MEASURED_TARGET	IC50
C[C@@H]1COc2c(-c3nc(N[C@@H]4CCOC[C@H]4O)ncc3Cl)cc(F)c3nc(C(C)(C)O)n1c23 (single isomer, unassigned) [Isomer 2 with a retention time of 1.887 min]	CDK9/CyclinT1 (Homo sapiens, UniProt P50750)	> 1 µM

C[C@H]1COc2c(-c3nc(N[C@@H]4CCOC[C@H]4O)ncc3Cl)cc(F)c3nc(C(C)(C)O)n1c23 (single isomer, unassigned) [Isomer 1 with a retention time of 2.078 min] has a reported IC50 of > 1 µM

----------
Entries below carry reported pIC50 on CYP2C9 (Homo sapiens).
Sequence (P11712 whole entry): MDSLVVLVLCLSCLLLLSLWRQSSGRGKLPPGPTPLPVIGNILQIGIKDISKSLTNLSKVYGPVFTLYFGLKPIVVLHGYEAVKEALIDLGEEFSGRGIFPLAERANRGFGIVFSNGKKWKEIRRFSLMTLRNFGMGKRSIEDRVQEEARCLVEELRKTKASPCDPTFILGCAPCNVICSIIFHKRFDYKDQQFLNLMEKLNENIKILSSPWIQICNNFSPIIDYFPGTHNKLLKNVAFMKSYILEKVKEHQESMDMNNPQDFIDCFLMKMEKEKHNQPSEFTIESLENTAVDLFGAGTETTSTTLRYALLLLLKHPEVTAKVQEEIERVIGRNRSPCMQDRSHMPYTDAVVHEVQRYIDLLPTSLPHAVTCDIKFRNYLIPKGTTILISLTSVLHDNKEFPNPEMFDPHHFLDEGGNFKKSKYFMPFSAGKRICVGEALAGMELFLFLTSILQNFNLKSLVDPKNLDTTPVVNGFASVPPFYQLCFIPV
pIC50: −log10 of the molar value.

COMPOUND	pIC50
C[C@@H]1COc2c(-c3nc(N[C@@H]4CCOC[C@H]4O)ncc3Cl)cc(F)c3nc(C(C)(C)O)n1c23 (single isomer, unassigned) [Isomer 2 with a retention time of 1.887 min]	< 4.52

Switching to the query record.
C[C@H]1COc2c(-c3nc(N[C@@H]4CCOC[C@H]4O)ncc3Cl)cc(F)c3nc(C(C)(C)O)n1c23 (single isomer, unassigned) [Isomer 1 with a retention time of 2.078 min] has a reported pIC50 of < 4.52

----------
Assay: Long-term/accelerated stability of crystal forms
Format: physicochemical
Settings: 25 °C/60% RH, 2 months, sealed in aluminum foil bag
Exercise: for every item that follows, state its recorded Purity%.
Numbers only, in %.

> print(dat)
                                   molecule  unit.annotation  number
1  C[C@H]1COc2c(-c3nc(N[C@@H]4CCOC[C@H]4O)ncc3Cl)cc(F)c3nc(C(C)(C)O)n1c23 [Free-state amorphous form]                %    98.9
2  C[C@H]1COc2c(-c3nc(N[C@@H]4CCOC[C@H]4O)ncc3Cl)cc(F)c3nc(C(C)(C)O)n1c23 [Crystal form E]                %    99.9
3  C[C@H]1COc2c(-c3nc(N[C@@H]4CCOC[C@H]4O)ncc3Cl)cc(F)c3nc(C(C)(C)O)n1c23 [Crystal form G]                %    99.9

Give Purity% for each listed item.
1. C[C@H]1COc2c(-c3nc(N[C@@H]4CCOC[C@H]4O)ncc3Cl)cc(F)c3nc(C(C)(C)O)n1c23 [Crystal form D]
2. C[C@H]1COc2c(-c3nc(N[C@@H]4CCOC[C@H]4O)ncc3Cl)cc(F)c3nc(C(C)(C)O)n1c23 [Crystal form F]

1. 99.9
2. 99.9

C[C@H]1COc2c(-c3nc(N[C@@H]4CCOC[C@H]4O)ncc3Cl)cc(F)c3nc(C(C)(C)O)n1c23 [Crystal form H] has a reported Purity% of 99.95

----------
Assay: Long-term/accelerated stability of crystal forms
Format: physicochemical
Conditions: 25 °C/60% RH, 1 month, sealed in aluminum foil bag
Exercise: for every item that follows, state its recorded Purity%.
Answers are plain numbers, in %.

> print(dat)
                                   compound  number
1  C[C@H]1COc2c(-c3nc(N[C@@H]4CCOC[C@H]4O)ncc3Cl)cc(F)c3nc(C(C)(C)O)n1c23 [Crystal form G]    99.9
2  C[C@H]1COc2c(-c3nc(N[C@@H]4CCOC[C@H]4O)ncc3Cl)cc(F)c3nc(C(C)(C)O)n1c23 [Free-state amorphous form]    99.0
3  C[C@H]1COc2c(-c3nc(N[C@@H]4CCOC[C@H]4O)ncc3Cl)cc(F)c3nc(C(C)(C)O)n1c23 [Crystal form H]   99.95
4  C[C@H]1COc2c(-c3nc(N[C@@H]4CCOC[C@H]4O)ncc3Cl)cc(F)c3nc(C(C)(C)O)n1c23 [Crystal form E]    99.9
5  C[C@H]1COc2c(-c3nc(N[C@@H]4CCOC[C@H]4O)ncc3Cl)cc(F)c3nc(C(C)(C)O)n1c23 [Crystal form F]    99.9

Switching to the query record.
C[C@H]1COc2c(-c3nc(N[C@@H]4CCOC[C@H]4O)ncc3Cl)cc(F)c3nc(C(C)(C)O)n1c23 [Crystal form D] has a reported Purity% of 99.9
